Below is a list of entries, each paired with its recorded inhibition value.
# target_of_assay: Rhodesain (Trypanosoma brucei rhodesiense) (UniProt Q95PM0)
# Sequence (Q95PM0 1-450): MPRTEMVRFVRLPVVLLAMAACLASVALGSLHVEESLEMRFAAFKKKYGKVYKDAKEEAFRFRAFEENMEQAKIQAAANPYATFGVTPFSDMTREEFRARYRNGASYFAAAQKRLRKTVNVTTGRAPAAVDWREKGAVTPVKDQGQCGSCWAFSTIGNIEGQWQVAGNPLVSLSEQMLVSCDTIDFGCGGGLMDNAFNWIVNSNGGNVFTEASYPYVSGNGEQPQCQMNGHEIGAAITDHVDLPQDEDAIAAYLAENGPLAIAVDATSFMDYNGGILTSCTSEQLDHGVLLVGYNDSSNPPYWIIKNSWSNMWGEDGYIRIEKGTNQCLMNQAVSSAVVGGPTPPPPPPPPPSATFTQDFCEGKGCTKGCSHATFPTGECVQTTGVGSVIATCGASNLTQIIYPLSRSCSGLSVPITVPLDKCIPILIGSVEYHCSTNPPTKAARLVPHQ
# experiment_summary: Inhibition of Trypanosoma brucei rhodesiense rhodesain after 12 hrs by fluorescence spectroscopy-based on-bead assay
# Design: concentration or dose not given beside the values
# assay_setup: concentration not given here
Square brackets hold non-standard residues; d marks the D form. Peptide text beside a SMILES is read from it. * marks the point of attachment. Fumaroyl(AlaGlyPheOH) = C[C@H](NC(=O)/C=C/C(=O)*)C(=O)NCC(=O)N[C@@H](Cc1ccccc1)C(=O)O; Chg = N[C@H](C(=O)O)C1CCCCC1; Dap = NC[C@H](N)C(=O)O
observable: inhibition (%)

>>> readout_number("CC[C@H](C)[C@H](NC(=O)[C@H](C)NC(=O)/C=C/C(=O)NCC(=O)NCC(=O)N[C@@H](Cc1ccccc1)C(=O)O)C(=O)N[C@H](C(=O)N[C@H](C(N)=O)C(C)C)C(C)C (HELM PEPTIDE1{[O=C(/C=C/C(=O)[*:2])NCC(=O)NCC(=O)N[C@@H](Cc1ccccc1)C(=O)O].A.I.V.V.[am]}$$$$V2.0)")
33
>>> readout_number("CC[C@H](C)[C@H](NC(=O)[C@H](C)NC(=O)/C=C/C(=O)N[C@@H](C)C(=O)NCC(=O)N[C@@H](Cc1ccccc1)C(=O)O)C(=O)N[C@@H](CC(C)C)C(=O)N[C@H](C(N)=O)C(C)C (HELM PEPTIDE1{[C[C@H](NC(=O)/C=C/C(=O)[*:2])C(=O)NCC(=O)N[C@@H](Cc1ccccc1)C(=O)O].A.I.L.V.[am]}$$$$V2.0)")
49
>>> readout_number("CC(C)[C@H](NC(=O)[C@H](C)NC(=O)[C@H](Cc1ccccc1)NC(=O)[C@H](CC(N)=O)NC(=O)/C=C/C(=O)NCC(=O)NCC(=O)N[C@@H](Cc1ccccc1)C(=O)O)C(N)=O (HELM PEPTIDE1{[O=C(/C=C/C(=O)[*:2])NCC(=O)NCC(=O)N[C@@H](Cc1ccccc1)C(=O)O].N.F.A.V.[am]}$$$$V2.0)")
66
>>> readout_number("CC[C@H](C)[C@H](NC(=O)[C@H](CC(N)=O)NC(=O)/C=C/C(=O)NCC(=O)NCC(=O)N[C@@H](Cc1ccccc1)C(=O)O)C(=O)N[C@@H](C)C(=O)N[C@H](C(N)=O)C(C)C (HELM PEPTIDE1{[O=C(/C=C/C(=O)[*:2])NCC(=O)NCC(=O)N[C@@H](Cc1ccccc1)C(=O)O].N.I.A.V.[am]}$$$$V2.0)")
55
>>> readout_number("CC(C)[C@H](NC(=O)[C@@H](NC(=O)[C@@H](NC(=O)[C@H](CCC(N)=O)NC(=O)/C=C/C(=O)NCC(=O)NCC(=O)N[C@@H](Cc1ccccc1)C(=O)O)C1CCCCC1)C(C)C)C(N)=O (HELM PEPTIDE1{[O=C(/C=C/C(=O)[*:2])NCC(=O)NCC(=O)N[C@@H](Cc1ccccc1)C(=O)O].Q.[O=C([C@@H](N[*:1])C1CCCCC1)[*:2]].V.V.[am]}$$$$V2.0)")
53
>>> readout_number("CC(C)C[C@H](NC(=O)[C@@H](NC(=O)[C@H](CC(N)=O)NC(=O)/C=C/C(=O)N[C@@H](C)C(=O)NCC(=O)N[C@@H](Cc1ccccc1)C(=O)O)c1ccccc1)C(=O)N[C@H](C(N)=O)C(C)C (HELM PEPTIDE1{[C[C@H](NC(=O)/C=C/C(=O)[*:2])C(=O)NCC(=O)N[C@@H](Cc1ccccc1)C(=O)O].N.[Phg].L.V.[am]}$$$$V2.0)")
55
>>> readout_number("CC[C@H](C)[C@H](NC(=O)[C@H](CCC(N)=O)NC(=O)/C=C/C(=O)NCC(=O)NCC(=O)N[C@@H](Cc1ccccc1)C(=O)O)C(=O)N[C@@H](C)C(=O)N[C@H](C(N)=O)C(C)C (HELM PEPTIDE1{[O=C(/C=C/C(=O)[*:2])NCC(=O)NCC(=O)N[C@@H](Cc1ccccc1)C(=O)O].Q.I.A.V.[am]}$$$$V2.0)")
38
>>> readout_number("CC[C@H](C)[C@H](NC(=O)[C@H](CCC(N)=O)NC(=O)/C=C/C(=O)N[C@@H](C)C(=O)NCC(=O)N[C@@H](Cc1ccccc1)C(=O)O)C(=O)N[C@@H](CC(C)C)C(=O)N[C@H](C(N)=O)C(C)C (HELM PEPTIDE1{[C[C@H](NC(=O)/C=C/C(=O)[*:2])C(=O)NCC(=O)N[C@@H](Cc1ccccc1)C(=O)O].Q.I.L.V.[am]}$$$$V2.0)")
47
>>> readout_number("CC(C)[C@H](NC(=O)[C@@H](NC(=O)[C@H](Cc1ccccc1)NC(=O)[C@H](Cc1ccccc1)NC(=O)/C=C/C(=O)N[C@@H](C)C(=O)NCC(=O)N[C@@H](Cc1ccccc1)C(=O)O)C(C)C)C(N)=O (HELM PEPTIDE1{[C[C@H](NC(=O)/C=C/C(=O)[*:2])C(=O)NCC(=O)N[C@@H](Cc1ccccc1)C(=O)O].F.F.V.V.[am]}$$$$V2.0)")
38
>>> readout_number("CC(=O)NC[C@H](NC(=O)/C=C/C(=O)N[C@@H](C)C(=O)NCC(=O)N[C@@H](Cc1ccccc1)C(=O)O)C(=O)N[C@H](C(=O)N[C@@H](CC(C)C)C(=O)N[C@H](C(N)=O)C(C)C)C1CCCCC1 ({Fumaroyl(AlaGlyPheOH)}-[Dap](Ac)[Chg]LV-NH2)")
51
>>> readout_number("CC(C)[C@H](NC(=O)[C@H](C)NC(=O)[C@@H](NC(=O)[C@H](CC(N)=O)NC(=O)/C=C/C(=O)NCC(=O)NCC(=O)N[C@@H](Cc1ccccc1)C(=O)O)C1CCCCC1)C(N)=O (HELM PEPTIDE1{[O=C(/C=C/C(=O)[*:2])NCC(=O)NCC(=O)N[C@@H](Cc1ccccc1)C(=O)O].N.[O=C([C@@H](N[*:1])C1CCCCC1)[*:2]].A.V.[am]}$$$$V2.0)")
26
>>> readout_number("CC(=O)NC[C@H](NC(=O)/C=C/C(=O)N[C@@H](C)C(=O)NCC(=O)N[C@@H](Cc1ccccc1)C(=O)O)C(=O)N[C@@H](Cc1ccccc1)C(=O)N[C@@H](CC(C)C)C(=O)N[C@H](C(N)=O)C(C)C (HELM PEPTIDE1{[C[C@H](NC(=O)/C=C/C(=O)[*:2])C(=O)NCC(=O)N[C@@H](Cc1ccccc1)C(=O)O].[O=C([C@H](CN[*:3])N[*:1])[*:2]].F.L.V.[am]}|PEPTIDE2{[ac]}$PEPTIDE1,PEPTIDE2,2:R3-1:R2$$$V2.0)")
52

----------
# target_of_assay: Rhodesain (Trypanosoma brucei rhodesiense)
# experiment_summary: Inhibition of Trypanosoma brucei rhodesiense recombinant rhodesain
Square brackets hold non-standard residues; d marks the D form. Peptide text beside a SMILES is read from it. * marks the point of attachment. Fumaroyl(GlyGlyPheOH) = O=C(/C=C/C(=O)*)NCC(=O)NCC(=O)N[C@@H](Cc1ccccc1)C(=O)O; Chg = N[C@H](C(=O)O)C1CCCCC1; Dap = NC[C@H](N)C(=O)O
observable: Ki (nM)

>>> readout_number("CC(C)[C@H](NC(=O)[C@@H](NC(=O)[C@@H](NC(=O)[C@H](CC(N)=O)NC(=O)/C=C/C(=O)NCC(=O)NCC(=O)N[C@@H](Cc1ccccc1)C(=O)O)C1CCCCC1)C(C)C)C(N)=O (HELM PEPTIDE1{[O=C(/C=C/C(=O)[*:2])NCC(=O)NCC(=O)N[C@@H](Cc1ccccc1)C(=O)O].N.[O=C([C@@H](N[*:1])C1CCCCC1)[*:2]].V.V.[am]}$$$$V2.0)")
80
>>> readout_number("CC(=O)NC[C@H](NC(=O)/C=C/C(=O)NCC(=O)NCC(=O)N[C@@H](Cc1ccccc1)C(=O)O)C(=O)N[C@H](C(=O)N[C@@H](C)C(=O)N[C@H](C(N)=O)C(C)C)C1CCCCC1 ({Fumaroyl(GlyGlyPheOH)}-[Dap](Ac)[Chg]AV-NH2)")
300
>>> readout_number("CC(C)C[C@H](NC(=O)[C@H](C)NC(=O)/C=C/C(=O)N[C@@H](C)C(=O)NCC(=O)N[C@@H](Cc1ccccc1)C(=O)O)C(=O)N[C@@H](CC(C)C)C(=O)N[C@H](C(N)=O)C(C)C (HELM PEPTIDE1{[C[C@H](NC(=O)/C=C/C(=O)[*:2])C(=O)NCC(=O)N[C@@H](Cc1ccccc1)C(=O)O].A.L.L.V.[am]}$$$$V2.0)")
1300
>>> readout_number("CC(C)C[C@H](NC(=O)[C@H](Cc1ccccc1)NC(=O)/C=C/C(=O)NCC(=O)NCC(=O)N[C@@H](Cc1ccccc1)C(=O)O)C(=O)N[C@@H](CC(C)C)C(=O)N[C@H](C(N)=O)C(C)C (HELM PEPTIDE1{[O=C(/C=C/C(=O)[*:2])NCC(=O)NCC(=O)N[C@@H](Cc1ccccc1)C(=O)O].F.L.L.V.[am]}$$$$V2.0)")
200

The reported measurements were obtained from ChEMBL document CHEMBL1155459.
